# targetOfAssay: Serine/threonine-protein kinase BRSK1 (Homo sapiens) (UniProt Q8TDC3);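 further: each value is a mean percent inhibition of BRSK1 kinase activity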
# Sequence (whole entry): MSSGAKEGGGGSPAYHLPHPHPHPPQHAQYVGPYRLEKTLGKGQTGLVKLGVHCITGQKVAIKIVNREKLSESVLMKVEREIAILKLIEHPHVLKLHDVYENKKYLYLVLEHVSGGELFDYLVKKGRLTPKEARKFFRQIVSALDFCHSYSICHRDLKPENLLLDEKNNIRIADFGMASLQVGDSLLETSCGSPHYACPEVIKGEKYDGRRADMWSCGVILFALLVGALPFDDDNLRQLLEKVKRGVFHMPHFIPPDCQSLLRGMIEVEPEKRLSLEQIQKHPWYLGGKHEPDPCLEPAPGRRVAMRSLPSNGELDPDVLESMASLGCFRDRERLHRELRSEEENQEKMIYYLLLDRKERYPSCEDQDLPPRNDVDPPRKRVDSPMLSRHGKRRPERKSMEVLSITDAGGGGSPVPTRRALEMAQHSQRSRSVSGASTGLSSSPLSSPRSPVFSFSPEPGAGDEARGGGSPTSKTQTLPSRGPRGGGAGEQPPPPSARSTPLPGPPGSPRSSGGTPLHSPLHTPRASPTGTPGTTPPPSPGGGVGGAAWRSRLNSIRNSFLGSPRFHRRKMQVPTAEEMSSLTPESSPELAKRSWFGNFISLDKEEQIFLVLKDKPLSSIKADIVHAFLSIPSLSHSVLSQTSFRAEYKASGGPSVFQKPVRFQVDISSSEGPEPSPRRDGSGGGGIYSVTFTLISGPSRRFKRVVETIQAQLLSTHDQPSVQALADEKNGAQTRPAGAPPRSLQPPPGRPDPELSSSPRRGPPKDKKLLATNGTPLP
# appliedConditions: at 1 µM
Kindly state inhibition for each of the entries shown.
Write the value in % as a bare number.

Data request: Given "Cc1nn(C)c2cc(N(C)c3ccnc(Nc4cccc(S(N)(=O)=O)c4)n3)ccc12" , state its recorded inhibition.
Data returned: 0.63

Data request: Form field: reported inhibition of "COc1ccc(-c2coc3ncnc(N)c23)cc1"
Data returned: 4.41

Data request: So what does the record say about inhibition for "Cc1cccc(-c2n[nH]cc2-c2ccc3ncccc3n2)n1" ?
Data returned: 1.97

Data request: Give the measured inhibition of "COc1cc(C)c(NC(=O)CN(C)C)cc1Nc1nc(Nc2cccc(F)c2C(N)=O)c2cc[nH]c2n1" .
Data returned: 0.73

Data request: Fill in: inhibition of "COc1cccc(-n2ncc3c(N/N=C/c4cccc(F)c4)ncnc32)c1" is ___
Data returned: 13.7

Data request: For "CCCN1CCC(Oc2cc(Nc3nc(Nc4cccc(F)c4C(N)=O)c4cc[nH]c4n3)c(OC)cc2Cl)CC1" , what is its reported inhibition?
Data returned: -0.28

Data request: What inhibition value was documented for this compound, "O=C(Nc1n[nH]c2nc(-c3ccco3)c(Br)cc12)C1CC1" ?
Data returned: 12.9

Data request: Look up inhibition: "NS(=O)(=O)c1cccc(-c2ccc3c(NC(=O)C4CC4)n[nH]c3c2)c1"
Data returned: 41.3

Data request: // returns reported inhibition for input "CCn1c(-c2nonc2N)nc2c(C#CC(C)(C)O)nc(CN3CCCC3)cc21"
Data returned: 2.17

Data request: Reported inhibition for "NC(=O)c1ccc(-c2nc(-c3ccccn3)c(-c3ccc4c(c3)OCO4)[nH]2)cc1" : what is it?
Data returned: -0.03
